// provenance: ChEMBL document CHEMBL2311508

System: Plasmodium falciparum
Assay: Antimalarial activity against chloroquine-resistant Plasmodium falciparum K1 assessed as parasite growth inhibition after 72 hrs by MSF assay
Type: functional, organism-based
Settings: K1, 72 h
# IC50 listing for each entry below
Answer in µg/mL, number only, no unit symbol.

[
  {
    "Smi": "Cc1cc(N2CCN(c3ccccc3)CC2)nc(Nc2ccc(OCCCCCOc3ccc(Nc4nc(C)cc(N5CCN(c6ccccc6)CC5)n4)cc3)cc2)n1",
    "Unit Name": "µg/mL",
    "IC50": 0.0531
  }
]

Requested field: IC50. Item: "CCN1CCN(c2cc(C)nc(Nc3ccc(OCCCCCOc4ccc(Nc5nc(C)cc(N6CCN(CC)CC6)n5)cc4)cc3)n2)CC1"
0.0221

# IC50 lookup, item "Cc1cc(NCc2ccc(F)cc2)nc(Nc2ccc(OCCCCCOc3ccc(Nc4nc(C)cc(NCc5ccc(F)cc5)n4)cc3)cc2)n1"
0.358

# query: IC50 of entry "Cc1cc(NCc2ccccc2)nc(Nc2ccc(OCCCCCOc3ccc(Nc4nc(C)cc(NCc5ccccc5)n4)cc3)cc2)n1"
0.383

Which IC50 value is on record for "Cc1cc(NC2CC2)nc(Nc2ccc(OCCCCCOc3ccc(Nc4nc(C)cc(NC5CC5)n4)cc3)cc2)n1" ?
0.0113

Recorded IC50 for "COc1ccc(CNc2cc(C)nc(Nc3ccc(OCCCCCOc4ccc(Nc5nc(C)cc(NCc6ccc(OC)cc6)n5)cc4)cc3)n2)cc1" , please?
0.0236

* * *

Test: Cytotoxicity against human KB cells after 72 hrs by MTT assay
Format: cell-based
Conditions: KB cells
Field: label. Allowed values: y (CC50 at 72 h < 6 µM) or n (CC50 at 72 h >= 6 µM).

Worked examples follow.
[
  {
    "Smi": "Cc1cc(N2CCOCC2)nc(Nc2ccc(OCCCCCOc3ccc(Nc4nc(C)cc(N5CCOCC5)n4)cc3)cc2)n1",
    "Label": "y"
  },
  {
    "Smi": "Cc1cc(NCc2ccc(F)cc2)nc(Nc2ccc(OCCCCCOc3ccc(Nc4nc(C)cc(NCc5ccc(F)cc5)n4)cc3)cc2)n1",
    "Label": "n"
  },
  {
    "Smi": "N=C(N)c1ccc(OCCCCCOc2ccc(C(=N)N)cc2)cc1",
    "Label": "n"
  },
  {
    "Smi": "COc1ccc(C(=O)/C=C/c2ccc(OCCCCCOc3ccc(C=O)cc3)cc2)cc1OC",
    "Label": "n"
  },
  {
    "Smi": "Cc1cc(N2CCN(C)CC2)nc(Nc2ccc(OCCCCCOc3ccc(Nc4nc(C)cc(N5CCN(C)CC5)n4)cc3)cc2)n1",
    "Label": "y"
  }
]

Regarding "Cc1cc(NCc2ccccc2)nc(Nc2ccc(OCCCCCOc3ccc(Nc4nc(C)cc(NCc5ccccc5)n4)cc3)cc2)n1" , kindly confirm whether its CC50 at 72 h is beneath 6 µM.
n

Could you please tell me whether CC50 at 72 h recorded for "Nc1nc(-c2ccccc2)cc(-c2ccc(OCCCCCOc3ccc(-c4cc(-c5ccccc5)nc(N)n4)cc3)cc2)n1" is less than 6 µM?
n

For this compound, is CC50 at 72 h lower than 6 µM? "O=C(/C=C/c1ccc(OCCCCCOc2ccc(/C=C/C(=O)c3ccccc3)cc2)cc1)c1ccccc1"
n

# strict comparison: is reported CC50 at 72 h < 6 µM? input = "Cc1cc(NC2CC2)nc(Nc2ccc(OCCCCCOc3ccc(Nc4nc(C)cc(NC5CC5)n4)cc3)cc2)n1"
y

Is it true that CC50 at 72 h reported for "COc1ccc(CNc2cc(C)nc(Nc3ccc(OCCCCCOc4ccc(Nc5nc(C)cc(NCc6ccc(OC)cc6)n5)cc4)cc3)n2)cc1" is less than 6 µM?
y

Say whether its CC50 at 72 h is strictly beneath 6 µM. Entry: "Cc1cc(N2CCN(c3ccccc3)CC2)nc(Nc2ccc(OCCCCCOc3ccc(Nc4nc(C)cc(N5CCN(c6ccccc6)CC5)n4)cc3)cc2)n1"
n

Find out if reported CC50 at 72 h for "CCN1CCN(c2cc(C)nc(Nc3ccc(OCCCCCOc4ccc(Nc5nc(C)cc(N6CCN(CC)CC6)n5)cc4)cc3)n2)CC1" is less than 6 µM
y

Quick check: does "Cc1cc(NC2CCCC2)nc(Nc2ccc(OCCCCCOc3ccc(Nc4nc(C)cc(NC5CCCC5)n4)cc3)cc2)n1" have CC50 at 72 h under 6 µM?
y
